Test: solubility by visual examination in ultrapure water, PBS and DMSO
Assay type: physicochemical
Settings: ultrapure water, visual examination; read-out: Solubility, Ultrapure water
Method: The solubility of each labyrinthin-derived peptide candidate was assessed by visual examination in ultrapure water, 0.1 M PBS (PBS; pH 7.4), and dimethyl sulfoxide (DMSO; analytical grade). As reported in Table 4, a solubility of less than 0.1 mg/mL of solvent was defined as “Undissolved” and solubility of greater than or 0.1 mg/mL was defined as “Dissolved.” The concentration range of measured solubility is provided under the “Dissolved” classification where available (Table 4).
Ends that are not written are not given here.
# Lookup of reported solubility keyed by entry

[
  {
    "Entry Sequence": "GEDLQQEDGPTGEPQQEDDEFL [SEQ ID NO: 29]",
    "solubility": "> 100 µg/mL"
  },
  {
    "Entry Sequence": "DSQVIVEEVSIFPVEEQQEVPPD [SEQ ID NO: 32]",
    "solubility": "< 100 µg/mL"
  },
  {
    "Entry Sequence": "NEGIEITEVTAPPEDNPVEDSQ [SEQ ID NO: 31]",
    "solubility": "< 100 µg/mL"
  },
  {
    "Entry Sequence": "DMEEMMSEQENPDSSEPVVEDE [SEQ ID NO: 30]",
    "solubility": "< 100 µg/mL"
  }
]
